subject of test: T1, hVEGF-A (8-109) (human, UniProt P15692 214-315)
T1 sequence (looked up): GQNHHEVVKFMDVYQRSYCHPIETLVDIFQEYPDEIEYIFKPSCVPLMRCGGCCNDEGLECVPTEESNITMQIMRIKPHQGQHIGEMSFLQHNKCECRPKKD
protocol description: spot phage ELISA
Items are presented alongside their recorded ELISA.
Provide a numeric answer; units are not to be included.

Worked examples follow.
1) GCWDPTFNWALYCKQDSDCLAGCVCQMYDSCG (designed binder) [VEGF_CKP7.24]
0.8
2) GCKNPLFNWALYCKQDSDCLAGCVCQLFDSCG (designed binder) [VEGF_CKP7.8]
0.5

Problem: Dear colleague, I am looking for the recorded ELISA of the following binder: GCQDPTVNWAVYCKQDSDCLAGCVCQFYQSCG (designed binder) [VEGF_CKP7.17]
Solution: 0.8

Problem: How about this binder: GCLDPSFDWALYCKQDSDCLAGCVCQLYNSCG (designed binder) [LRP6_CKP7.89]
Solution: 0.5

Problem: How about this binder: GCQDPTFNWAEYCKQDSDCLAGCVCQLYQSCG (designed binder) [VEGF_CKP7.19]
Solution: 0.6

Problem: How about this binder: GCQDPSLNWADYCKQDSDCLAGCVCQMHQSCG (designed binder) [VEGF_CKP7.50]
Solution: 0.8

Problem: How about this binder: GCKDTTFNWGLFCKQDSDCLAGCVCQLYQSCG (designed binder) [VEGF_CKP7.78]
Solution: 0.7

Problem: How about this binder: GCEDPTVDWAQYCKQDSDCLAGCVCQMYQSCG (designed binder) [VEGF_CKP7.46]
Solution: 0.3

Each recorded value in this set is attributed to patent US20200325187A1.
